system: MAC NJ211; test: In vitro screen versus MAC NJ211 (Alamar blue microdilution broth assay, MIC99); type: cell-based; details: lowest drug concentration that completely inhibited growth; read-out: MAC NJ211 MIC99
Where a name gives a salt, the structure may show the parent alone.
MIC99 vs 20 µg/mL: less than gives class 1; not less than gives class 0.

Criterion: MIC99 strictly below 20 µg/mL. Is it met by C[n+]1cc2c3c(ccc2c2ccc4cc5c(cc4c21)OCO5)OCO3 ?
class 0

Criterion: MIC99 strictly below 20 µg/mL. Is it met by CCN(CC)CCNc1nc(/C=C/c2ccc(Cl)cc2)nc2cc3ccccc3cc12 ?
class 1

Criterion: MIC99 strictly below 20 µg/mL. Is it met by COc1cc2c(cc1O)CC[n+]1cc3cc(OC)c(OC)cc3cc1-2 ?
class 0

Criterion: MIC99 strictly below 20 µg/mL. Is it met by CC(C)c1c(O)ccc2c1CC[C@H]1C(C)(C)CCC[C@]21C ?
class 0

Criterion: MIC99 strictly below 20 µg/mL. Is it met by CSc1ccc(/C=C2/C(C)=C(CCNCc3ccco3)c3cc(F)ccc32)cc1 ?
class 1

Criterion: MIC99 strictly below 20 µg/mL. Is it met by Oc1ccc(Cl)cc1Cc1cc(Cl)cc(Cc2cc(Cl)ccc2O)c1O ?
class 1

Criterion: MIC99 strictly below 20 µg/mL. Is it met by COc1cc(/C=C2\C=C(CC(=O)NCCN3CCCC3)c3cc(F)ccc32)cc(OC)c1OC ?
class 0

Criterion: MIC99 strictly below 20 µg/mL. Is it met by O=C(O)c1cc(O)c2c(c1)C(=O)c1cccc(O)c1C2=O ?
class 0

Criterion: MIC99 strictly below 20 µg/mL. Is it met by COc1cc2c(c(OC)c1OC)-c1ccc(OC)c(=O)cc1[C@@H](NC(C)=O)CC2 ?
class 0

Criterion: MIC99 strictly below 20 µg/mL. Is it met by COc1cc(/C=C2\C=C(CC(=O)NCCN(C)C)c3cc(F)ccc32)cc(OC)c1OC ?
class 0

Criterion: MIC99 strictly below 20 µg/mL. Is it met by CSc1ccc(/C=C2/C(C)=C(CC(=O)NCCN(C)C)c3cc(F)ccc32)cc1 ?
class 1

Criterion: MIC99 strictly below 20 µg/mL. Is it met by CSc1ccc(/C=C2/C(C)=C(CCNCc3ccccc3)c3cc(F)ccc32)cc1 ?
class 1

Criterion: MIC99 strictly below 20 µg/mL. Is it met by CC/C(=C(\c1ccccc1)c1ccc(OCCN(C)C)cc1)c1ccccc1 [Compound 11, Tamoxifen citrate] ?
class 0

Criterion: MIC99 strictly below 20 µg/mL. Is it met by Nc1nonc1C(=O)N/N=C/c1cc(Cl)cc(Cl)c1O ?
class 0

Criterion: MIC99 strictly below 20 µg/mL. Is it met by CSc1ccc(/C=C2\C(C)=C(CC(=O)NCCN(C)C)c3cc(F)ccc32)cc1 ?
class 1
